# METHOD DESCRIPTION: Mouse blood levels after intramuscular administration
# Assay type: in vivo
# EXPERIMENTAL PARAMETERS: mouse, blood, im, 10 mg/kg, Table III; IM 10 mg./kg.; 1 hr; 0.01% phosphate buffer; read-out: Mouse Blood Levels
# Method: Mouse Blood Levels After Intramuscular Administration of 10 mg./kg. Body Weight The compounds were dissolved in 0.01% phosphate buffer. Mouse Blood Levels After IM Administration of 10 mg./kg. Body Weight The compounds were prepared in 0.01% phosphate The compounds were prepared in 0.01% phosphate buffer.
PROPERTY NAME: concentration at 1 h (ng/mL)
Numeric only. Scale: ng/mL

Query block: Give the measured concentration at 1 h for O=C(O)C1=C(CSc2cnn[nH]2)CS[C@@H]2[C@H](N3C(=O)[C@@H](c4ccc(O)cc4)NC3c3ccc(S(=O)(=O)O)o3)C(=O)N12 (stereo partly shown)
Result block: 11900

###

# METHOD DESCRIPTION: Mouse blood levels after intramuscular administration
# Type: in vivo
# EXPERIMENTAL PARAMETERS: mouse, blood, im, 10 mg/kg, Example 3; IM 10 mg./kg.; 0.25 hr; average of 3 experiments; read-out: Blood Levels
Hi there, I'd appreciate the recorded concentration at 0.25 h for every entry that follows.
Numeric only. Scale: ng/mL

Query block: Give the measured concentration at 0.25 h for N[C@@H](C(=O)N[C@@H]1C(=O)N2C(C(=O)O)=C(CSc3cnn[nH]3)CS[C@H]12)c1ccc(O)cc1 [BL-S640, reference compound]
Result block: 12700

Query block: Give the measured concentration at 0.25 h for O=C(O)C1=C(CSc2cnn[nH]2)CS[C@@H]2[C@H](N3C(=O)[C@@H](c4ccc(O)cc4)NC3c3ccccc3S(=O)(=O)O)C(=O)N12 (some centres unmarked)
Result block: 10300

###

# Tested on: Ent. cloacae A9656
# METHOD DESCRIPTION: Antibiotic activity in nutrient broth (MIC)
# Assay type: cell-based
# EXPERIMENTAL PARAMETERS: Enterobacter cloacae, A9656, inoculum 10^-4; derivatives adjusted for BL-S640 content
Hi there, I'd appreciate the recorded MIC for every entry that follows.

Query block: Give the measured MIC for O=C(O)C1=C(CSc2cnn[nH]2)CS[C@@H]2[C@H](N3C(=O)[C@@H](c4ccc(O)cc4)NC3c3ccc(S(=O)(=O)O)o3)C(=O)N12 (some centres unmarked)
Result block: > 125 µg/mL

Query block: Give the measured MIC for O=C(O)COc1ccccc1C1N[C@H](c2ccc(O)cc2)C(=O)N1[C@@H]1C(=O)N2C(C(=O)O)=C(CSc3cnn[nH]3)CS[C@H]12 (some centres unmarked)
Result block: > 125 µg/mL

Query block: Give the measured MIC for O=C(O)C1=C(CSc2cnn[nH]2)CS[C@@H]2[C@H](N3C(=O)[C@@H](c4ccc(O)cc4)NC3c3ccccc3S(=O)(=O)O)C(=O)N12 (some centres unmarked)
Result block: 125 µg/mL

Query block: Give the measured MIC for CC(=O)OCC1=C(C(=O)O)N2C(=O)[C@@H](NC(=O)Cc3cccs3)[C@H]2SC1 [Cephalothin, reference compound]
Result block: > 125 µg/mL

Query block: Give the measured MIC for N[C@@H](C(=O)N[C@@H]1C(=O)N2C(C(=O)O)=C(CSc3cnn[nH]3)CS[C@H]12)c1ccc(O)cc1 [BL-S640, reference compound]
Result block: > 125 µg/mL
